test_target: T1, human CD73 (SEQ ID NO: 70) (Homo sapiens, UniProt P21589)
T1 construct: purchased BPS Bioscience
T1 sequence (P21589 27-549): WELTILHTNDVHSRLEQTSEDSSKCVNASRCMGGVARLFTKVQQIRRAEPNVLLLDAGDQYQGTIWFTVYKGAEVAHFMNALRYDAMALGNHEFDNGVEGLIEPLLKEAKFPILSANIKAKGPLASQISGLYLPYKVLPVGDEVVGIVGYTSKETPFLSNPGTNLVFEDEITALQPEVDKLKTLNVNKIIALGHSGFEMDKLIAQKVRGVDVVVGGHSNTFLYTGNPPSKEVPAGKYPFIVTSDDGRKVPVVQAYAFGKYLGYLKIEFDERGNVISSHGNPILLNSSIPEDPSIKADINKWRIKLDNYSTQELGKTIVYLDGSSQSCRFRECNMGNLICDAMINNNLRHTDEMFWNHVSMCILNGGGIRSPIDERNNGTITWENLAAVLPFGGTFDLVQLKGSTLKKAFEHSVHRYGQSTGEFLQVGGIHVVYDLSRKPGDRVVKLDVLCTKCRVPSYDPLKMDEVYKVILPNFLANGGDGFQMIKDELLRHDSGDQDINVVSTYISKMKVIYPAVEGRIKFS
protocol_text: SPR (Biacore 8K) binding affinity and kinetics to human CD73
cond: human CD73, open conformation, 25° C.
The entries below are paired with their reported kd.
quantity_kind: kd

[[record]]
molecule = "CL25_hu_10-6: humanized CL25 antibody, VH and VL in FIG. 1A (antibody, V domains shown) VH: EVQLVQSGAEVKKPGESLKISCKGSGYTFTSYGLSWVRQMPGKGLEWMGEIYPGSGNTYYNEKFKGQVTISADKSISTAYLQWSSLKASDTAMYYCARYDYLGSSYGFDYWGAGTTVTVSS VL: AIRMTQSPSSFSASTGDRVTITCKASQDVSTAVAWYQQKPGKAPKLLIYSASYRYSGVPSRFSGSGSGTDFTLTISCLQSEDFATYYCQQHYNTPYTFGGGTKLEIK"
quantity_kind = "kd"
reported_result = "0.00092 s⁻¹"

[[record]]
molecule = "CL25_hu_8-6: humanized CL25 antibody, VH and VL in FIG. 1C (antibody, V domains shown) VH: QVQLVQSGAEVKKPGASVKVSCKASGYTFTSYGLSWVRQATGQGLEWMGEIYPGSGNTYYNEKFKGRVTMTRNTSISTAYMELSSLRSEDTAVYYCARYDYLGSSYGFDYWGAGTTVTVSS VL: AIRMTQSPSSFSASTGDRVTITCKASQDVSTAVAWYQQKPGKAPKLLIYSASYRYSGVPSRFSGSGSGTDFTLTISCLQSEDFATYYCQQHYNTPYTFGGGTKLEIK"
quantity_kind = "kd"
reported_result = "0.00111 s⁻¹"

